Cited source for all entries: paper PMC9457593

molecular target: c-Met kinase (Homo sapiens)
Sequence (P08581 956-1390 limits assumed): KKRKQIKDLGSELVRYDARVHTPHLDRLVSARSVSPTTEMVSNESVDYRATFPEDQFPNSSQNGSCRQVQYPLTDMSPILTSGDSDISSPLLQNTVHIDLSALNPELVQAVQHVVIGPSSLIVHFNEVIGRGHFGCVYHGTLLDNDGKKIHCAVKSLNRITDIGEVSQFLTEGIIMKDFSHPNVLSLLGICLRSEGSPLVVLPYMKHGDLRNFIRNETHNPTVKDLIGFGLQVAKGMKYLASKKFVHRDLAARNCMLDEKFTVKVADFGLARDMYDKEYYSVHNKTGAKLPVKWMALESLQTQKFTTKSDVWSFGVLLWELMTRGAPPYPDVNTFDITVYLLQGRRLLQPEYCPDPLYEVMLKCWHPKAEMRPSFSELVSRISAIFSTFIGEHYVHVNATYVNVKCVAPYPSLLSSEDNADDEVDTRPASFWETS
endpoint: IC50 (nM)
Quick note: give the figure in nM, leave out the unit.

Consider the reported IC50 for these compounds:
* CC(Oc1cnc(-c2cccc(C(C)n3nc(-c4cccc(C#N)c4)ccc3=O)c2)nc1)C1CCN(C)CC1 [(R, S)-12a] | 1.56
* CC(Oc1cnc(-c2cccc(C(C)n3nc(-c4cccc(C#N)c4)ccc3=O)c2)nc1)C1CCN(C)CC1 [(S, S)-12a] | 35.8
* CC(Oc1cnc(-c2cccc(C(C)n3nc(-c4cccc(C#N)c4)ccc3=O)c2)nc1)C1CCN(C)CC1 [(R, R)-12a] | 28.7

Please examine the following record next.
Entry CC(Oc1cnc(-c2cccc(C(C)n3nc(-c4cccc(C#N)c4)ccc3=O)c2)nc1)C1CCN(C)CC1 [(S, R)-12a] , tested on c-Met kinase (Homo sapiens), has a reported IC50 of 195

* * *

Tested on: MHCC97H cells
Assay: MTT antiproliferative assay
Assay type: cell-based, human
Conditions: Homo sapiens, MHCC97H, Table 2; read-out: IC50 on MHCC-97H
Description: On the basis of our former study, compounds 12a-b were designed and first screened for their antiproliferative activity against the c-Met-driven human hepatocarcinoma cells (MHCC97H), using a standard MTT assay. Tepotinib was used as a positive control.
endpoint: pIC50
Keep it numeric: pIC50 is minus log10 of the concentration in mol/L.

Entry CC(Oc1cnc(-c2cccc(C(C)n3nc(-c4cccc(C#N)c4)ccc3=O)c2)nc1)C1CCN(C)CC1 [(R, S)-12a] , pIC50 reported as 8.70

* * *

tested on: MHCC97H cells; test: MTT antiproliferative assay; assay type: cell-based, human; conditions: Homo sapiens, MHCC97H, 48 h, read-out: MHCC97H Cell IC50
endpoint: pIC50
Quick note: pIC50 values are minus log10 of concentrations in mol/L.

CN1CCC(COc2cnc(-c3cccc(Cn4nc(-c5cccc(C#N)c5)ccc4=O)c3)nc2)CC1 [Tepotinib, tepotinib, reference compound] has a reported pIC50 of 7.89
